# Experimental system: Glutamate receptor ionotropic, NMDA 2C (Rattus norvegicus, UniProt P35439+Q00961)
# Sequence (Q00961 whole entry, one chain of several): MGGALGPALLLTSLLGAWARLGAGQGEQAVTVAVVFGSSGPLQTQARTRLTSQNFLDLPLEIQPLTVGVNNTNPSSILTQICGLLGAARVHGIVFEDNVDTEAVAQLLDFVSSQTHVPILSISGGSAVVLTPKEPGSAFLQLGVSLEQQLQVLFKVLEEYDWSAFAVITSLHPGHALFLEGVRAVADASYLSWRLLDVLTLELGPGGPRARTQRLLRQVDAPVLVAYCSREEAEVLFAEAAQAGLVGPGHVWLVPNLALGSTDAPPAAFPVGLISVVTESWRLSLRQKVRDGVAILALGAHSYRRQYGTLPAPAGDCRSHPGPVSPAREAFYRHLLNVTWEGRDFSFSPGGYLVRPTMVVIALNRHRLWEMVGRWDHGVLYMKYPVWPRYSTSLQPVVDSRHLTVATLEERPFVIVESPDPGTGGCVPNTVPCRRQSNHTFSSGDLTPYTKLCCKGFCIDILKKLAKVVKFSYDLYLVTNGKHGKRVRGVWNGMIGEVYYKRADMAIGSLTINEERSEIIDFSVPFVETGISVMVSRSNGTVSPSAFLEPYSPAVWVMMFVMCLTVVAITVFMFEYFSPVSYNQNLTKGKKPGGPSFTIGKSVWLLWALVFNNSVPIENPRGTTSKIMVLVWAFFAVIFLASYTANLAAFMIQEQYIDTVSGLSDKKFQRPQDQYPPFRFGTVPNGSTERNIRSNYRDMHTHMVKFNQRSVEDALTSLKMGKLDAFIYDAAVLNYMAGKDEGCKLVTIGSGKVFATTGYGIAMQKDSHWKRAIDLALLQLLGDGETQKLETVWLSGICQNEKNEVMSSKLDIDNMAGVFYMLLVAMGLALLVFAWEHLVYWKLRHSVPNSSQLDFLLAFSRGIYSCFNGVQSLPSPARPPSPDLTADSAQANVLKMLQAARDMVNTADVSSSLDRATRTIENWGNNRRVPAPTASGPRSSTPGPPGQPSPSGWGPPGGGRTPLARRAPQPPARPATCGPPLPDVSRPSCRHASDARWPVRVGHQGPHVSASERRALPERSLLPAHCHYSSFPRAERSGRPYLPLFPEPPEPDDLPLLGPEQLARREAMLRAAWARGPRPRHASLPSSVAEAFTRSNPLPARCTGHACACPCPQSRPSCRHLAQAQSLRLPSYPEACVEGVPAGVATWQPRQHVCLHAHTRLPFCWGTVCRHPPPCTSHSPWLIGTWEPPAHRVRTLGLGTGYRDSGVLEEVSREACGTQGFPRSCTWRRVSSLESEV
# Test description: Negative allosteric modulation of recombinant rat GluN2C receptor expressed in Xenopus laevis oocytes by two-electrode voltage clamp method
Endpoint label: IC50 (µM)

Some compounds with known IC50 results, for comparison:
1. O=C(O)CCC(=O)N1N=C(c2c(-c3cc(Cl)cc(Cl)c3)c3ccccc3[nH]c2=O)CC1c1ccc(Cl)cc1 (stereo not drawn) ... 0.78
2. N#Cc1ccc(-c2c(C3=NN(C(=O)CCC(=O)O)C(c4ccc(Cl)cc4)C3)c(=O)[nH]c3ccccc23)cc1 (stereo not drawn) ... 12
3. COC(=O)c1ccc(C2CC(c3c(-c4ccccc4)c4cc(Cl)ccc4[nH]c3=O)=NN2C(=O)CCC(=O)O)cc1 (stereo not drawn) ... 93

1. O=C(O)CCC(=O)N1N=C(c2c(-c3ccccc3)c3cc(Cl)ccc3[nH]c2=O)CC1c1ccccc1 (stereo not drawn)
2. N#Cc1cccc(-c2c(C3=NN(C(=O)CCC(=O)O)C(c4ccc(Cl)cc4)C3)c(=O)[nH]c3ccccc23)c1 (stereo not drawn)
3. O=C(O)/C=C\C(=O)N1N=C(c2c(-c3ccccc3)c3cc(Cl)ccc3[nH]c2=O)CC1c1ccc(Br)cc1 (stereo not drawn)
4. O=C(O)CCC(=O)N1N=C(c2c(-c3ccccc3)c3cc(Cl)ccc3[nH]c2=O)CC1c1ccc(C(F)(F)F)cc1 (stereo not drawn)
5. O=C(O)CCC(=O)N1N=C(c2c(-c3ccc(F)cc3)c3ccccc3[nH]c2=O)CC1c1ccc(Cl)cc1 (stereo not drawn)
QUERY: // ranking: key=IC50, reverse=True Return the labels ranked in the requested order, please.
RESULT: 1, 2, 3, 4, 5

* * *

# Experimental system: Glutamate receptor ionotropic, NMDA 2B (Rattus norvegicus, UniProt P35439+Q00960)
# Sequence (Q00960 whole entry, one chain of several): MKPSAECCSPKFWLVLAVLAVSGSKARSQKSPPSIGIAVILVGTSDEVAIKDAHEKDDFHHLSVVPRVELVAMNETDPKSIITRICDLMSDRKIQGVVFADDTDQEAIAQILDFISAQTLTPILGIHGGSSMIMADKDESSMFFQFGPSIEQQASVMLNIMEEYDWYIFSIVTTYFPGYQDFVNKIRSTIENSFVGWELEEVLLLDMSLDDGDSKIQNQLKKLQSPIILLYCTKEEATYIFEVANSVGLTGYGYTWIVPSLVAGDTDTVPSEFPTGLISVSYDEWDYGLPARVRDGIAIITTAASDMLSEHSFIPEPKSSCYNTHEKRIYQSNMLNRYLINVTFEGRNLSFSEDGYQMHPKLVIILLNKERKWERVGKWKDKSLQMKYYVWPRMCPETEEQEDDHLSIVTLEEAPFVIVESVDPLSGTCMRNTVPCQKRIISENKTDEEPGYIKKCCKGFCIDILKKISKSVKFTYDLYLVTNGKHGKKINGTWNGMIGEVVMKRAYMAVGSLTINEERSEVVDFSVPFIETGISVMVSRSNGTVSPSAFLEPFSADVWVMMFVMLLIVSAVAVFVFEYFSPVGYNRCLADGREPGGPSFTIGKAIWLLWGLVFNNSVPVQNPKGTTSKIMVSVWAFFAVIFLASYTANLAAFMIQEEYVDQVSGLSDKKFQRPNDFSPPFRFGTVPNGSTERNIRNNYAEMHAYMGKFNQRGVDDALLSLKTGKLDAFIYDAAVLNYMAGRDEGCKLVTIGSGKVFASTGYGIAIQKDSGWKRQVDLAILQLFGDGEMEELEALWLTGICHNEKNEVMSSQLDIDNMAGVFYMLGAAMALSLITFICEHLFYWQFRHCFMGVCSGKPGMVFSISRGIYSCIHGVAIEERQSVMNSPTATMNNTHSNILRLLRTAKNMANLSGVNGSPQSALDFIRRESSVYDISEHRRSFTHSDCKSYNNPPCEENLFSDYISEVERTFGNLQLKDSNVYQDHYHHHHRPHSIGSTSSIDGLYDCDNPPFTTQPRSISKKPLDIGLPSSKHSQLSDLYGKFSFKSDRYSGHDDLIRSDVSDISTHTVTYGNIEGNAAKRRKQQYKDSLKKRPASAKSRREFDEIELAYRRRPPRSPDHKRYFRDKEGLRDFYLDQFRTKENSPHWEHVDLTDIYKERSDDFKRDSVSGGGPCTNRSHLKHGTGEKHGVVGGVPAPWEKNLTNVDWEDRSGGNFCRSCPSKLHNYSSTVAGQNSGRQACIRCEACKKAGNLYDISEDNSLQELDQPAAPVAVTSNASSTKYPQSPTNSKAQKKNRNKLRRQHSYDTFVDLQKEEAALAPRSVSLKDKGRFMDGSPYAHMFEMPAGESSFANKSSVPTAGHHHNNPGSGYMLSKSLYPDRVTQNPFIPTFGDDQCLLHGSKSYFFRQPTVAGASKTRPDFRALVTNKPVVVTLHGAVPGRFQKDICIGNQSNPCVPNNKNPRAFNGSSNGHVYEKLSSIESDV
# Test description: Negative allosteric modulation of recombinant rat GluN2B receptor expressed in Xenopus laevis oocytes by two-electrode voltage clamp method
Endpoint label: IC50 (µM)

Observe how each entry below is paired with its result.
1. O=C(O)CCC(=O)N1N=C(c2c(-c3ccc(Cl)c(Cl)c3)c3ccccc3[nH]c2=O)CC1c1ccc(Cl)cc1 (stereo unspecified) ... 20
2. O=C(O)CCC(=O)N1N=C(c2c(-c3ccc(F)c(F)c3)c3ccccc3[nH]c2=O)CC1c1ccc(Cl)cc1 (stereo unspecified) ... 71
3. O=C(O)/C=C\C(=O)N1N=C(c2c(-c3ccccc3)c3cc(Cl)ccc3[nH]c2=O)CC1c1ccc(Br)cc1 (stereo unspecified) ... 37
4. O=C(O)CCC(=O)N1N=C(c2c(-c3ccc(Cl)cc3)c3ccccc3[nH]c2=O)CC1c1ccc(Br)cc1 (stereo unspecified) ... 34

1. O=C(O)CCC(=O)N1N=C(c2c(-c3ccc(Cl)c(F)c3)c3ccccc3[nH]c2=O)CC1c1ccc(Cl)cc1 (stereo unspecified)
2. O=C(O)CCC(=O)N1N=C(c2c(-c3cc(F)cc(F)c3)c3ccccc3[nH]c2=O)CC1c1ccc(Cl)cc1 (stereo unspecified)
QUERY: When their IC50 values are compared, which is larger, 1 or 2 ? Choose, then provide that item's label.
RESULT: 2

* * *

# Experimental system: Glutamate receptor ionotropic, NMDA 2A (Rattus norvegicus, UniProt P35439+Q00959)
# Sequence (Q00959 whole entry, one chain of several): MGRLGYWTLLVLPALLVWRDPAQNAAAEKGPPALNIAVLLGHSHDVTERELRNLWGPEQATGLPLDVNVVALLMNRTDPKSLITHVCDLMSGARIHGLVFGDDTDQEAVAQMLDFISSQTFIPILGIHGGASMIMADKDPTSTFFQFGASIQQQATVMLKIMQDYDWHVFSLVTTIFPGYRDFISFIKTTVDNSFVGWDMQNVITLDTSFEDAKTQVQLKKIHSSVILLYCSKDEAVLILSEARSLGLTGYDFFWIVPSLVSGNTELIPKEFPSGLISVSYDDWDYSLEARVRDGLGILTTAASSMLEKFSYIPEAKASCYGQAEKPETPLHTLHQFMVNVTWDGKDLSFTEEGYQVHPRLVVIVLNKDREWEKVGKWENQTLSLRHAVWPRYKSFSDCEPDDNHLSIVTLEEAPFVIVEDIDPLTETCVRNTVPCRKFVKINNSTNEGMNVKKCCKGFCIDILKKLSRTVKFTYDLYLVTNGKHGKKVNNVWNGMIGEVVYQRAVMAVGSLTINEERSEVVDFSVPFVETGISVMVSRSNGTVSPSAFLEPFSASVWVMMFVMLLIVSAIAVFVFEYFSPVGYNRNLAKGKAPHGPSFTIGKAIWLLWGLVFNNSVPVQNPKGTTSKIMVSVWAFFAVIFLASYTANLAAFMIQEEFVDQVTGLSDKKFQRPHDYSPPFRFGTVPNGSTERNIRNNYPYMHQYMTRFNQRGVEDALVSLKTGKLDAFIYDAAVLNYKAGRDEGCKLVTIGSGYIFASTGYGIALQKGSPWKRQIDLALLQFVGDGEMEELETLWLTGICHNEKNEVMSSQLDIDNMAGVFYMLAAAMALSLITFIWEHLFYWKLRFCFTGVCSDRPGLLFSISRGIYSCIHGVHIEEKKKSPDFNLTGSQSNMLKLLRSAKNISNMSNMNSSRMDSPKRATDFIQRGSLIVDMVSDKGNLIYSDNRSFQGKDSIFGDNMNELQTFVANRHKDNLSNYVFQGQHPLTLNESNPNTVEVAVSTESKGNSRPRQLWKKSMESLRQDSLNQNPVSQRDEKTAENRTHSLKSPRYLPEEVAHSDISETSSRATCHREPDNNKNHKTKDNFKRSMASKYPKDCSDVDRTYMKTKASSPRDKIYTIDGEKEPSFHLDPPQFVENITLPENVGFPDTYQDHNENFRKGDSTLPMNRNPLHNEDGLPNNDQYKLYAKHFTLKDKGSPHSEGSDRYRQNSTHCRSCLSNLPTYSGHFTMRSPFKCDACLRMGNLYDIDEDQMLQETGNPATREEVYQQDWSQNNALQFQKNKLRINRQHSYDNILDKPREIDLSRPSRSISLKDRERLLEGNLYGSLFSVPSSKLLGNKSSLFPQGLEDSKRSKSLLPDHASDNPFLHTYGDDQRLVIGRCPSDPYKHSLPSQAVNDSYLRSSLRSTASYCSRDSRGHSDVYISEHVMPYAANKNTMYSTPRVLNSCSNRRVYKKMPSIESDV
# Test description: Negative allosteric modulation of recombinant rat GluN2A receptor expressed in Xenopus laevis oocytes by two-electrode voltage clamp method
Endpoint label: IC50 (µM)

1) O=C(O)/C=C/C(=O)N1N=C(c2c(-c3ccc(Br)cc3)c3ccccc3[nH]c2=O)CC1c1ccc(Cl)cc1 (racemic) ... 4.3

P. O=C(O)CCC(=O)N1N=C(c2c(-c3cccc(Cl)c3)c3ccccc3[nH]c2=O)CC1c1ccc(Cl)cc1 (stereo unspecified)
Q. O=C(O)CCC(=O)N1N=C(c2c(-c3ccc(Cl)cc3)c3ccccc3[nH]c2=O)CC1c1ccc(F)cc1 (stereo unspecified)
QUERY: Given the listed records, identify the one among P and Q with higher IC50. Identify your selection by its label.
RESULT: Q
(Q: 47 µM, P: 20 µM)
